Where do these numbers come from? They come from PubChem BioAssay (NCI).

# Test system: SNB-75 CNS
# Assay Overview: NCI tumour cell line growth inhibition, 48 h
Value Type: TGI (µM)
Kindly provide the numeric value in µM only, without the unit symbol.

Please review the entries below; each comes with its answer.
[
  {
    "Compound": "CCCCN(CCCC)CC(O)c1ccc(OCc2ccccc2)c2ccccc12 (stereo unspecified)",
    "TGI (µM)": 15.8
  },
  {
    "Compound": "CC[C@@]1(O)C(=O)OCc2c1cc1n(c2=O)Cc2cc3c([N+](=O)[O-])c(OC)ccc3nc2-1",
    "TGI (µM)": 0.405
  },
  {
    "Compound": "COC(=O)c1nc(-c2ccc(Cl)c(Cl)c2)nc2ccc(Cl)cc12",
    "TGI (µM)": 51.3
  },
  {
    "Compound": "CC1=C(C#N)C2C(=C(C)N1)C(N)=Nc1ccccc12 (stereo unspecified)",
    "TGI (µM)": 44.1
  }
]

Lookup: Entry under review: `Nc1nc2cc(-c3ccc4ncc(C(=O)N5CCOCC5)n4c3)ccc2o1` . Reported TGI?
Found: 15.7

Lookup: Can you look up the measured TGI of `CCOC(=O)c1oc2c(OC)cc(Cl)c3c2c1CCC3` for me?
Found: 76.5

Lookup: Given the compound `CCCCC/C=C/C(=O)CCc1ccc(O)c(OC)c1` , what is its reported TGI?
Found: 20.5
